experiment: Selectivity index, ratio of IC50 for african green monkey Vero cells to IC50 for Leishmania donovani; format: toxicity, cell-based; conditions: read-out: Ratio IC50
Non-standard residues stand in square brackets, D forms with d. Residues, ends and D or L forms follow the SMILES beside them. *: point of attachment. Octanoyl(2R-Me,7,8-dehydro) = C=CCCCC[C@@H](C)C(=O)*; Oct7ynoyl(2R-Me) = C#CCCCC[C@@H](C)C(=O)*; NMeF = CN[C@@H](Cc1ccccc1)C(=O)O; Oct(7)enoyl = C=CCCCCCC(=O)*; Oct(7)ynoyl = C#CCCCCCC(=O)*; NMeV = CN[C@H](C(=O)O)C(C)C; Hept6ynoyl = C#CCCCCC(=O)*; NMeA = CN[C@@H](C)C(=O)O; X4 = C=CCCCCC(=O)*; X2 = C=CCCCC(=O)*
Provide the reported selectivity ratio of each item.
I'd appreciate a reply containing only the number, no unit.

// query selectivity ratio value for entry C#CCCCC[C@@H](C)C(=O)N(C)[C@H](C(=O)N(C)[C@H](C(=O)N[C@H](C(=O)N(C)[C@@H](C)C(=O)N(C)[C@@H](Cc1ccccc1)C(N)=O)C(C)C)C(C)C)C(C)C [ALMIRAMIDE B] ({Oct7ynoyl(2R-Me)}-[NMeV][NMeV]V[NMeA][NMeF]-NH2) 21.8

Param item = C=CCCCC(=O)N(C)[C@H](C(=O)N(C)[C@H](C(=O)N(C)[C@H](C(=O)N(C)[C@@H](C)C(=O)N(C)[C@@H](Cc1ccccc1)C(=O)N(C)C)C(C)C)C(C)C)C(C)C (X2-[NMeV][NMeV][NMeV][NMeA][NMeF]-NMe2) ; retrieve measured selectivity ratio. 13.9

State the recorded selectivity ratio for this entry: C#CCCCCC(=O)N(C)[C@H](C(=O)N(C)[C@H](C(=O)N(C)[C@H](C(=O)N(C)[C@@H](C)C(=O)N(C)[C@@H](Cc1ccccc1)C(=O)N(C)C)C(C)C)C(C)C)C(C)C (Hept6ynoyl-[NMeV][NMeV][NMeV][NMeA][NMeF]-NMe2) 50.2

Look at this compound and give its reported selectivity ratio. C=CCCCCC(=O)N(C)[C@H](C(=O)N(C)[C@H](C(=O)N(C)[C@H](C(=O)N(C)[C@@H](C)C(=O)N(C)[C@@H](Cc1ccccc1)C(=O)N(C)C)C(C)C)C(C)C)C(C)C (X4-[NMeV][NMeV][NMeV][NMeA][NMeF]-NMe2) 8.8

Query: selectivity ratio; subject: C#CCCCCCC(=O)N(C)[C@H](C(=O)N(C)[C@H](C(=O)N(C)[C@H](C(=O)N(C)[C@@H](C)C(=O)N(C)[C@@H](Cc1ccccc1)C(=O)N(C)C)C(C)C)C(C)C)C(C)C ({Oct(7)ynoyl}-[NMeV][NMeV][NMeV][NMeA][NMeF]-NMe2) 27

Which measured selectivity ratio value corresponds to C=CCCCCCC(=O)N(C)[C@H](C(=O)N(C)[C@H](C(=O)N(C)[C@H](C(=O)N(C)[C@@H](C)C(=O)N(C)[C@@H](Cc1ccccc1)C(=O)O)C(C)C)C(C)C)C(C)C ({Oct(7)enoyl}-[NMeV][NMeV][NMeV][NMeA][NMeF]-OH) ? 46.9

Using the record for C=CCCCC[C@@H](C)C(=O)N(C)[C@H](C(=O)N(C)[C@H](C(=O)N[C@H](C(=O)N(C)[C@@H](C)C(=O)N(C)[C@@H](Cc1ccccc1)C(N)=O)C(C)C)C(C)C)C(C)C [ALMIRAMIDE C] ({Octanoyl(2R-Me,7,8-dehydro)}-[NMeV][NMeV]V[NMeA][NMeF]-NH2) , report its selectivity ratio. 17.4

Which measured selectivity ratio value corresponds to C#CCCCCC(=O)N(C)[C@H](C(=O)N(C)[C@H](C(=O)N(C)[C@H](C(=O)N(C)[C@@H](C)C(=O)N(C)[C@@H](Cc1ccccc1)C(=O)O)C(C)C)C(C)C)C(C)C (Hept6ynoyl-[NMeV][NMeV][NMeV][NMeA][NMeF]-OH) ? 50.2
